Test system: NCI-H226
test-summary: NCI tumour cell line growth inhibition, 48 h
Activity calls are given as the source filed them. Cut-off read from the data, not from the text of the source: active = GI50 up to about 1.1 µM and inactive = higher.
Listing of entries alongside the reported GI50.

Would you please look over these solved cases?
compound: CN(C)c1ccc(/C=C2\C[C@H]3[C@@H]4CCc5cc(OCCN6CCCC6)ccc5[C@H]4CC[C@]3(C)C2=O)cc1
GI50: 1.82 µM (inactive)
--
compound: C=CCCCn1ccc2ccccc21
GI50: > 100 µM (inactive)
--
compound: CC(C)C(C=O)C(O)(C(F)(F)F)C(F)(F)F (stereo unspecified)
GI50: > 100 µM (inactive)
--
compound: COc1ccc(C)c2c1N[C@](C)([C@]1(C)Nc3c(OC)ccc(C)c3C1=O)C2=O
GI50: > 100 µM (inactive)
--
compound: c1ccc(OCc2nnc(CCCCCCCCc3nnc(COc4ccccc4)o3)o2)cc1
GI50: > 100 µM (inactive)

Name the recorded GI50 for Cc1c2c(n(CCc3ccc(Cl)cc3)c1C)NC(c1ccccc1)C(C#N)S2(=O)=O (stereo unspecified) . > 59.7 µM (inactive)
